Where these numbers come from: patent US20190119284A1

Target: Axl+ Ba/F3 cells (Homo sapiens, UniProt P30530)
Experiment: Ba/F3 proliferation assay, Axl+
Format: cell-based
Details: Tables 7 and 8; read-out: Ba/F3 line IC50, Axl+
Item-by-item account of GI50

# count of solved cases: 2
{"columns": ["Compound", "Measured Value"],
 "data": [
  ["COc1ccc(-c2ccccc2)cc1Nc1ncnc2[nH]nc(-c3ccc[nH]3)c12 [Cmpd 45C]", "> 3.33 µM"],
  ["COc1ccc(C(=O)N(C)C)cc1Nc1ncnc2[nH]nc(-c3ccsc3)c12 [Cmpd 42]", "> 10 µM"]
]}

Item: COc1ccc(-c2ccccc2)cc1N(C)c1ncnc2[nH]nc(-c3ccsc3)c12 [Cmpd 43] | GI50: > 3.33 µM

---

Item-by-item account of GI50
Biological target: Axl+ Ba/F3 cells (Homo sapiens, UniProt P30530)
Sequence (P30530 1-894): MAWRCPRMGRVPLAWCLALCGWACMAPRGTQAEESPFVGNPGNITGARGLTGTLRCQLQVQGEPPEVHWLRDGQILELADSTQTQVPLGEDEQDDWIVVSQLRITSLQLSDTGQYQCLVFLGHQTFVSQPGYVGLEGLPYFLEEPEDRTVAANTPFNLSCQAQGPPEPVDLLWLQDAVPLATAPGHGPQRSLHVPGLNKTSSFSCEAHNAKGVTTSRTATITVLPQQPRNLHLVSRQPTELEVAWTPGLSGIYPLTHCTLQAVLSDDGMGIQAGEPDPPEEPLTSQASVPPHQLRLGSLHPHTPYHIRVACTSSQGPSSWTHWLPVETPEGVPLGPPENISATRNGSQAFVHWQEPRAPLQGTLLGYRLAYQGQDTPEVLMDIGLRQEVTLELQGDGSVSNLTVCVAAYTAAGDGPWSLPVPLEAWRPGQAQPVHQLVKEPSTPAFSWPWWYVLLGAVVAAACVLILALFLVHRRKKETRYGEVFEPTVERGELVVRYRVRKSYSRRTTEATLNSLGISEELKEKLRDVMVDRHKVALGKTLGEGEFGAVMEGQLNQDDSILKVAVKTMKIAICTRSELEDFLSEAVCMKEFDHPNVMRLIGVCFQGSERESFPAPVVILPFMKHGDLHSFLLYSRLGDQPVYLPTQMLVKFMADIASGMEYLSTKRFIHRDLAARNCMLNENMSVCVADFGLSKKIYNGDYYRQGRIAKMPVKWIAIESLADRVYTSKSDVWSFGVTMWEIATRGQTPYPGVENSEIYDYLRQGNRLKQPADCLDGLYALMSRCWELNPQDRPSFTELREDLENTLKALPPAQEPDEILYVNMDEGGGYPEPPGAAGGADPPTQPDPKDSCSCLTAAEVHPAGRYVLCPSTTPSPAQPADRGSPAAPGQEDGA
Assay: Ba/F3 proliferation assay, Axl+
Type: cell-based
Details: Tables 7 and 8; read-out: Ba/F3 line IC50, Axl+

# count of solved cases: 3
{"columns": ["Molecule", "Measured Value"],
 "data": [
  ["COc1ccc(-c2ccoc2)cc1Nc1ncnc2[nH]nc(-c3cn[nH]c3)c12 [Cmpd 57B]", "> 10 µM"],
  ["COc1ccc(-c2ccco2)cc1Nc1ncnc2[nH]nc(-c3cn[nH]c3)c12 [Cmpd 53B]", "> 10 µM"],
  ["CC(=O)c1cccc(-c2n[nH]c3ncnc(Nc4cc(-c5ccccc5)ccc4C)c23)c1 [Cmpd 5-001A]", "> 3.33 µM"]
]}

Item: COc1ccccc1Nc1ncnc2[nH]nc(-c3cccc(C(C)=O)c3)c12 [Cmpd 187B] | GI50: > 10 µM

---

Biological target: Axl+ Ba/F3 cells (Homo sapiens)
Assay: Ba/F3 proliferation assay, Axl+
Type: cell-based
Conditions: Tables 7 and 8; read-out: Ba/F3 line IC50, Axl+
Item-by-item account of GI50

# count of solved cases: 2
{"columns": ["Compound", "GI50"],
 "data": [
  ["COc1ccc(-c2ccc(C)cc2)cc1Nc1ncnc2[nH]nc(-c3ccsc3)c12 [Cmpd 39C]", "> 10 µM"],
  ["COc1ccccc1Nc1ncnc2[nH]nc(-c3ccccc3)c12 [Cmpd 187A]", "> 10 µM"]
]}

Next item in the queue.
Item: COc1ccc(-c2ccccc2)cc1Nc1ncnc2[nH]nc(-c3cn[nH]c3)c12 [Cmpd 45E] | GI50: > 10 µM

---

Target: 2YF/3wt + NRG Ba/F3 cells (HER2YF/HER3wt) (Homo sapiens, UniProt P04626, Y1005F/Y1023F/Y1112F/Y1127F/Y1139F/Y1196F/Y1221F/Y1222F/Y1248F, cells depend on it)
Sequence (P04626 whole entry Y1005F/Y1023F/Y1112F/Y1127F/Y1139F/Y1196F/Y1221F/Y1222F/Y1248F): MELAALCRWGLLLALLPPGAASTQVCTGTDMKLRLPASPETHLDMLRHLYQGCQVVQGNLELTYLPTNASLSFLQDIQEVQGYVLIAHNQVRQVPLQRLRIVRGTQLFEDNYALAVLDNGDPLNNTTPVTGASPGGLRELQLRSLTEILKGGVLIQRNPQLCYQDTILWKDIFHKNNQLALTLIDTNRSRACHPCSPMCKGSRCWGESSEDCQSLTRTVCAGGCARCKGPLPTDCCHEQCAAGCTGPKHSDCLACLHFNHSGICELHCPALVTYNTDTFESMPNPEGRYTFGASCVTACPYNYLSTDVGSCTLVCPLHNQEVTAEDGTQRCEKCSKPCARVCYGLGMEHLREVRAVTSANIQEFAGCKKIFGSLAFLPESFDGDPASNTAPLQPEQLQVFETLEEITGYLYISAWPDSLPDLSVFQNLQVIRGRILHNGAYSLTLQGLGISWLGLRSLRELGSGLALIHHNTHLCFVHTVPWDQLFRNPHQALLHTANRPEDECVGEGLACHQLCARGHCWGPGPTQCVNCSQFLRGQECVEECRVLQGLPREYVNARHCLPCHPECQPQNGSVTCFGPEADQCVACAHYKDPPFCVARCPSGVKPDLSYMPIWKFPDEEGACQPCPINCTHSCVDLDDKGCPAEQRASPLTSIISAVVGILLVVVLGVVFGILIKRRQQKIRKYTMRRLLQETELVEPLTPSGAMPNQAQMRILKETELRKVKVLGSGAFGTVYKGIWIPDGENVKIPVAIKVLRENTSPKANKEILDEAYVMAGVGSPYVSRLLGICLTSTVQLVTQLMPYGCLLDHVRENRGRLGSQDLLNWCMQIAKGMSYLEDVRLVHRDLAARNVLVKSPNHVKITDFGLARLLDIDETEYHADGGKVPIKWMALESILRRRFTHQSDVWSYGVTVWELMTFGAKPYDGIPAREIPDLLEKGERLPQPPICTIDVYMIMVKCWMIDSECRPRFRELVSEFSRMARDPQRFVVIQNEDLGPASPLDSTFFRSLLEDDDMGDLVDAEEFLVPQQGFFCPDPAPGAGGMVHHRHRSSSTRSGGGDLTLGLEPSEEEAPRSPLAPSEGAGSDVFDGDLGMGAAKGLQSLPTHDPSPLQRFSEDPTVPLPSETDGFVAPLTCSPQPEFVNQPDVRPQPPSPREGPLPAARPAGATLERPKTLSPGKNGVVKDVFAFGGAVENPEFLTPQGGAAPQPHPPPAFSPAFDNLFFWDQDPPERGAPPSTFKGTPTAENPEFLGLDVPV
Assay: Ba/F3 proliferation assay, 2YF/3wt + NRG
Type: cell-based
Settings: Tables 7 and 8; read-out: Ba/F3 line IC50, HER2YF/HER3 + NRG
Observable: GI50

# count of solved cases: 2
{"columns": ["Compound", "GI50"],
 "data": [
  ["COc1ccc(C(=O)N(C)C)cc1Nc1ncnc2[nH]nc(-c3ccsc3)c12 [Cmpd 42]", "> 10 µM"],
  ["COc1ccc(-c2ccccc2)cc1Nc1ncnc2[nH]nc(-c3ccc(C(F)(F)F)cc3)c12 [Cmpd 191E]", "> 10 µM"]
]}

Next item in the queue.
Item: CC(=O)c1cccc(-c2n[nH]c3ncnc(Nc4ccc(Oc5ccccc5)cc4)c23)c1 [Cmpd 5-001B] | GI50: > 10 µM

---

Molecular target: Axl+ Ba/F3 cells (Homo sapiens, UniProt P30530)
Assay: Ba/F3 proliferation assay, Axl+
Assay type: cell-based
Settings: Tables 7 and 8; read-out: Ba/F3 line IC50, Axl+
Item-by-item account of GI50

# count of solved cases: 5
{"columns": ["Compound", "Tested On", "GI50"],
 "data": [
  ["COc1ccc(-c2ccccc2)cc1Nc1ncnc2[nH]nc(-c3cccc4ccccc34)c12 [Cmpd 191B]", "Axl+ Ba/F3 cells (Homo sapiens, UniProt P30530)", "> 1 µM"],
  ["COc1ccc(C(C)(C)C)cc1Nc1ncnc2[nH]nc(-c3cccc(C(C)=O)c3)c12 [Cmpd 190D]", "Axl+ Ba/F3 cells (Homo sapiens, UniProt P30530)", "> 10 µM"],
  ["COc1ccc(-c2n[nH]c3ncnc(Nc4cc(-c5ccccc5)ccc4OC)c23)cc1 [Cmpd 189B]", "Axl+ Ba/F3 cells (Homo sapiens, UniProt P30530)", "> 10 µM"],
  ["COc1ccc(-c2ccco2)cc1Nc1ncnc2[nH]nc(-c3ccco3)c12 [55A]", "Axl+ Ba/F3 cells (Homo sapiens, UniProt P30530)", "> 3.33 µM"],
  ["COc1ccc(N2CCN(C)CC2)cc1Nc1ncnc2[nH]nc(-c3ccsc3)c12 [Cmpd 41B]", "Axl+ Ba/F3 cells (Homo sapiens, UniProt P30530)", "> 1 µM"]
]}

Record CC(=O)c1cccc(-c2n[nH]c3ncnc(Nc4ccc(Oc5ccccc5)cc4)c23)c1 [Cmpd 5-001B] / Axl+ Ba/F3 cells (Homo sapiens, UniProt P30530), GI50 recorded as > 10 µM

Record CC(=O)c1cccc(-c2n[nH]c3ncnc(Nc4ccc(-c5ccccc5)cc4)c23)c1 [Cmpd 188B] / Axl+ Ba/F3 cells (Homo sapiens, UniProt P30530), GI50 recorded as > 10 µM

Record c1ccc(-c2ccc(Nc3ncnc4[nH]nc(-c5ccccc5)c34)cc2)cc1 [Cmpd 188A] / Axl+ Ba/F3 cells (Homo sapiens, UniProt P30530), GI50 recorded as > 10 µM

Record CC(=O)c1cccc(-c2n[nH]c3ncnc(Nc4cccc(-c5ccccc5)c4)c23)c1 [Cmpd 186B] / Axl+ Ba/F3 cells (Homo sapiens, UniProt P30530), GI50 recorded as > 10 µM

---

Item-by-item account of viability at 0.001 µM
Test system: HCC827
Assay: HCC827 cell viability
Type: cell-based
Conditions: Homo sapiens, compound at 1 nM, n in the line below, read-out: HCC827 (% viable at 1 nM)
Just the number please, in %, no unit attached.

# count of solved cases: 4
{"columns": ["Smi", "Measurement Unit", "viability at 0.001 µM"],
 "data": [
  ["COc1ccc(-c2ccsc2)cc1Nc1ncnc2[nH]cc(-c3cc[nH]n3)c12", "%", 80.9],
  ["COc1ccc(-c2cccs2)cc1Nc1ncnc2[nH]cc(-c3cc[nH]n3)c12", "%", 81.6],
  ["COc1ccc(-c2ccccc2)cc1Nc1ncnc2[nH]nc(-c3ccn(C)n3)c12", "%", 29.5],
  ["COc1ccc(-c2ccccc2)cc1Nc1ncnc2[nH]cc(-c3ccn(C)n3)c12", "%", 49.2]
]}

Item: `COc1ccc(-c2ccccn2)cc1Nc1ncnc2[nH]cc(-c3cc[nH]n3)c12` | viability at 0.001 µM: 102

---

Biological target: Axl+ Ba/F3 cells (Homo sapiens)
Experiment: Ba/F3 proliferation assay, Axl+
Assay type: cell-based
Conditions: Tables 7 and 8; read-out: Ba/F3 line IC50, Axl+
Observable: GI50 (nM)

{"columns": ["Compound", "Tested On", "Observable", "Measurement Unit", "Measured Value"],
 "data": [
  ["CNC(=O)c1cc(-c2n[nH]c3ncnc(Nc4cc(-c5ccccc5)ccc4OC)c23)cs1 [Cmpd 45F]", "Axl+ Ba/F3 cells (Homo sapiens)", "GI50", "nM", 535],
  ["COc1ccc(-c2ccoc2)cc1Nc1ncnc2[nH]cc(-c3cc[nH]n3)c12 [compound 178]", "Axl+ Ba/F3 cells (Homo sapiens)", "GI50", "nM", 1170]
]}

(A) COc1ccc(-c2ccccc2)cc1Nc1ncnc2[nH]nc(-c3ccccc3)c12 [Cmpd 184]
(B) COc1ccc(-c2ccccc2)cc1Nc1ncnc2[nH]nc(-c3ccccc3F)c12 [Cmpd 189A]
**Query** For the two items A and B , which reports the higher GI50 value? Answer by stating the label of the chosen item.
**Result** A
